logD at 1 h overview
# Method Summary: n-octanol-phosphate buffer distribution coefficient, log D of the compound at pH 7.4 after 1 hr by HPLC method
# Format: physicochemical
Readout Kind: logD at 1 h

[[record]]
compound_structure = "Cc1nc(OCc2cn(CCNc3ccnc4cc(Cl)ccc34)nn2)nc(-c2ccc([N+](=O)[O-])cc2)c1C(=O)OC(C)C"
reading = 0.88

[[record]]
compound_structure = "COC(=O)c1c(C)nc(OCc2cn(CCCNc3ccnc4cc(Cl)ccc34)nn2)nc1-c1ccccc1"
reading = 0.78

[[record]]
compound_structure = "COC(=O)c1c(C)nc(OCc2cn(CCNc3ccnc4cc(Cl)ccc34)nn2)nc1-c1ccccc1"
reading = 0.58

[[record]]
compound_structure = "CCOC(=O)c1c(C)nc(OCc2cn(CCNc3ccnc4cc(Cl)ccc34)nn2)nc1C"
reading = 0.27

[[record]]
compound_structure = "Cc1nc(OCc2cn(-c3ccnc4cc(Cl)ccc34)nn2)nc(-c2ccc([N+](=O)[O-])cc2)c1C(=O)OC(C)C"
reading = 1.12

[[record]]
compound_structure = "Cc1nc(OCc2cn(CCCNc3ccnc4cc(Cl)ccc34)nn2)nc(-c2ccccc2[N+](=O)[O-])c1C(=O)OC(C)C"
reading = 1.31

[[record]]
compound_structure = "CCOC(=O)c1c(C)nc(OCc2cn(CCCNc3ccnc4cc(Cl)ccc34)nn2)nc1-c1ccccc1"
reading = 1.19

[[record]]
compound_structure = "CCOC(=O)c1c(C)nc(OCc2cn(CCNc3ccnc4cc(Cl)ccc34)nn2)nc1-c1ccccc1"
reading = 0.81

[[record]]
compound_structure = "Cc1nc(OCc2cn(-c3ccnc4cc(Cl)ccc34)nn2)nc(-c2ccccc2)c1C(=O)OC(C)C"
reading = 1.46

[[record]]
compound_structure = "Cc1nc(OCc2cn(CCNc3ccnc4cc(Cl)ccc34)nn2)nc(-c2ccccc2)c1C(=O)OC(C)C"
reading = 1.21

[[record]]
compound_structure = "Cc1nc(OCc2cn(CCNc3ccnc4cc(Cl)ccc34)nn2)nc(-c2ccccc2[N+](=O)[O-])c1C(=O)OC(C)C"
reading = 0.86

[[record]]
compound_structure = "Cc1nc(OCc2cn(-c3ccnc4cc(Cl)ccc34)nn2)nc(-c2ccccc2[N+](=O)[O-])c1C(=O)OC(C)C"
reading = 1.1

[[record]]
compound_structure = "CCOC(=O)c1c(C)nc(OCc2cn(-c3ccnc4cc(Cl)ccc34)nn2)nc1-c1ccccc1"
reading = 1.08

[[record]]
compound_structure = "CCOC(=O)c1c(C)nc(OCc2cn(CCCNc3ccnc4cc(Cl)ccc34)nn2)nc1C"
reading = 0.42

[[record]]
compound_structure = "CCOC(=O)c1c(C)nc(OCc2cn(-c3ccnc4cc(Cl)ccc34)nn2)nc1C"
reading = 0.39

[[record]]
compound_structure = "COC(=O)c1c(C)nc(OCc2cn(-c3ccnc4cc(Cl)ccc34)nn2)nc1-c1ccccc1"
reading = 0.69

[[record]]
compound_structure = "Cc1nc(OCc2cn(CCCNc3ccnc4cc(Cl)ccc34)nn2)nc(-c2ccc([N+](=O)[O-])cc2)c1C(=O)OC(C)C"
reading = 1.43

[[record]]
compound_structure = "Cc1nc(OCc2cn(CCCNc3ccnc4cc(Cl)ccc34)nn2)nc(-c2ccccc2)c1C(=O)OC(C)C"
reading = 1.72

